Cited source: PubChem BioAssay (EPA / NIEHS)

Read-out: Matrix Metallopeptidase 1 (MMP1), MMP1 (gene 4312)
ASSAY_METHOD_TEXT: BSK_BE3C_MMP1: BioMAP Diversity Plus: BE3C Assay for Matrix Metallopeptidase 1 (MMP1) Biomarker Activity (AID 2283024)
APPLIED_CONDITIONS: primary human bronchial epithelial cells; actives raise or lower the signal
Activity calls are given as the source filed them. Rule for the calls: active = hit-call score of the fitted dose curve at least 0.9, where 1 is the maximum; inactive = score below 0.9.
REPORTED_METRIC: outcome

Some entries whose results are on file:
NC(=O)NN=Cc1ccc([N+](=O)[O-])o1 ... inactive
FC(F)(F)COC(OCC(F)(F)F)OCC(F)(F)F ... inactive
CC[C@H](C)C(=O)O[C@H]1C[C@H](O)C=C2C=C[C@H](C)[C@H](CC[C@@H](O)C[C@@H](O)CC(=O)O)[C@H]21 ... inactive
COCc1nnc(-c2ccc[n+]([O-])c2)n1-c1c(Cl)c(Cl)cc2[nH]c(=O)c(=O)[nH]c12 ... inactive
O=C(Cl)C(F)(F)C(F)(F)C(F)(F)C(=O)Cl ... inactive
O=C(O)c1cccc(C[C@@H]2COc3ccc(OCc4nc5cc(F)ccc5s4)cc3[C@@H]2O)c1 ... inactive
OC(O)(C(F)C(O)(O)C(F)(F)F)C(F)(F)F ... inactive
OC(Cn1cncn1)(Cn1cncn1)c1ccc(F)cc1F ... inactive
NC(=O)N(O)[C@@H]1COc2cc(OCc3ccccc3)ccc21 ... inactive
O=C(NO)C1(NS(=O)(=O)c2ccc(Oc3ccc(F)cc3)cc2)CCOCC1 ... inactive

Q: Given the entry `CCc1ccc(O)c(C(C)(C)C)c1` , report its measured outcome.
A: inactive

Q: Given the entry `OC[C@H]1O[C@@](CO)(O[C@H]2O[C@H](CO)[C@@H](O)[C@H](O)[C@H]2O)[C@@H](O)[C@@H]1O` , report its measured outcome.
A: inactive

Q: Given the entry `OCc1ccccc1` , report its measured outcome.
A: inactive

Q: Given the entry `CCCCCCCCCC` , report its measured outcome.
A: inactive

Q: Given the entry CCCCC(CC)C(=O)OCCOCCOCCOC(=O)C(CC)CCCC (stereo not given) , report its measured outcome.
A: inactive

---

ASSAY_METHOD_TEXT: BSK_4H_SRB: Viability Assessment in the BioMAP Diversity Plus: 4H Assay (AID 2283027);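 note: cells exposed to compound for 24 h before staining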
APPLIED_CONDITIONS: primary human endothelial cells (HUVEC)
Calls of active or inactive are those of the source. Rule for the calls: active = hit-call score of the fitted dose curve at least 0.9, where 1 is the maximum; inactive = score below 0.9.
Returns: one label drawn from true (1) for active, false (0) for inactive

C=CN1CCCC1=O ... false (0)
Nc1ccn([C@@H]2O[C@H](CO)[C@@H](O)[C@@H]2O)c(=O)n1 ... false (0)
OCc1c[nH]c2ccccc12 ... false (0)

Q: Field: outcome | Entry: `S=P(N1CC1)(N1CC1)N1CC1`
A: false (0)

Q: Field: outcome | Entry: `CCOc1ccc2[nH]cc(C(=O)NCc3ccccc3)c(=O)c2n1`
A: false (0)

Q: Field: outcome | Entry: `OCCOCCOCCO`
A: false (0)

Q: Field: outcome | Entry: `O=C(O)[C@H](O)[C@@H](O)C(=O)O`
A: false (0)

Q: Field: outcome | Entry: `O=S1(=O)CCCO1`
A: false (0)

Q: Field: outcome | Entry: `O=c1[nH]cnc2c1ncn2[C@H]1CC[C@@H](CO)O1`
A: false (0)

Q: Field: outcome | Entry: `c1ccc2c(c1)-c1cccc3c1c-2cc1ccccc13`
A: false (0)

Q: Field: outcome | Entry: FC(F)C(F)(F)COCC1CO1 (configuration not stated)
A: false (0)

---

Read-out: X-box binding protein 1 (XBP1), XBP1 (gene 7494)
ASSAY_METHOD_TEXT: LTEA_HepaRG_XBP1: Life Technologies and Expression Analysis (LTEA) Assay for X-box binding protein 1 (XBP1) using HepaRG (AID 2283540)
APPLIED_CONDITIONS: mRNA level, 48 h; actives raise or lower the signal
Activity calls are given as the source filed them. The calls were made as follows: active = hit-call score of the fitted dose curve at least 0.9, where 1 is the maximum; inactive = score below 0.9.
Returns: one label drawn from True for active, False for inactive

Observe how each entry below is paired with its result.
CC1(C)C(=O)N(Cl)C(=O)N1Cl ... False
CC(C)CCCCCCOC(=O)C1CCCCC1C(=O)OCCCCCCC(C)C (stereo unspecified) ... False
CC(C)c1nnc2ccc(-c3ocnc3-c3cc(F)ccc3F)cn12 ... True

Q: Field: outcome | Entry: `c1ccc2c(c1)-c1cccc3c1c-2cc1ccccc13`
A: True

Q: Field: outcome | Entry: `O=C(O)c1cccc(C[C@@H]2COc3ccc(OCc4nc5cc(F)ccc5s4)cc3[C@@H]2O)c1`
A: False

Q: Field: outcome | Entry: `CCc1ccc(O)c(C(C)(C)C)c1`
A: False

---

ASSAY_METHOD_TEXT: ATG_ISRE_CIS: Attagene CIS-FACTORIAL HepG2 Assay for human Interferon Regulatory Factor 1 (IRF1) binding to an Interferon-Stimulated Response Element (ISRE) (AID 2282948)
APPLIED_CONDITIONS: HepG2 ISRE cis-reporter (Attagene), mRNA transcription readout; actives raise or lower the signal
Procedure: ATG_CIS is a cell-based, multiplexed-readout assay that uses HepG2, a human liver cell line, with measurements taken at 24 hours after chemical dosing in a 24-well plate.ATG_ISRE_CIS is one of 52 assay component(s) measured or calculated from the ATG_CIS assay. […] This assay endpoint, ATG_ISRE_CIS, was analyzed with bidirectional fitting relative to DMSO as the negative control and baseline of activity. […]
Activity calls are given as the source filed them. The calls were made as follows: active = hit-call score of the fitted dose curve at least 0.9, where 1 is the maximum; inactive = score below 0.9.
Returns: one label drawn from active, inactive

FC(F)(F)COC(OCC(F)(F)F)OCC(F)(F)F ... inactive

Q: Field: outcome | Entry: `CCCCCCCCCC`
A: inactive

Q: Field: outcome | Entry: `Cc1ncc([C@@H](CCCCCCc2ccc3c(n2)NCCC3)CC(=O)O)cn1`
A: inactive

---

Read-out: Vascular cell adhesion molecule 1 (VCAM1), VCAM1 (gene 7412)
ASSAY_METHOD_TEXT: BSK_4H_VCAM1: BioMAP Diversity Plus: 4H Assay for Vascular cell adhesion molecule 1 (VCAM1) Biomarker Activity (AID 2283033)
APPLIED_CONDITIONS: primary human endothelial cells (HUVEC); actives raise or lower the signal
The source made the active and inactive calls. The calls were made as follows: active = hit-call score of the fitted dose curve at least 0.9, where 1 is the maximum; inactive = score below 0.9.
Returns: one label drawn from Y for active, N for inactive

CCCCCCCCCCCCCCO ... Y
CC(C)c1nnc2ccc(-c3ocnc3-c3cc(F)ccc3F)cn12 ... N

Q: Field: outcome | Entry: `CCCCCCCCN(C)C`
A: N

---

ASSAY_METHOD_TEXT: BSK_hDFCGF_Proliferation: Cell Proliferation Assessment in the BioMAP Diversity Plus: hDFCGF Assay (AID 2283059);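 note: curves fitted for both rise and fall of signal versus DMSO baseline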
APPLIED_CONDITIONS: primary human foreskin fibroblasts
Active and inactive are the calls of the source. The calls were made as follows: active = hit-call score of the fitted dose curve at least 0.9, where 1 is the maximum; inactive = score below 0.9.
Returns: one label drawn from active, inactive

Observe how each entry below is paired with its result.
c1ccc2c(c1)-c1cccc3c1c-2cc1ccccc13 ... inactive
Cc1nc(-c2ccccn2)ncc1C(=O)Nn1cc(C)c2cc(F)ccc21 ... inactive
CC(C)CC(C)O (stereo not given) ... inactive
FC(F)=C(F)C(F)(F)C(F)(F)C(F)(F)C(F)(F)C(F)(F)C(F)(F)F ... inactive
O=S(=O)(O)c1ccc(N=Nc2c(O)ccc3cc(S(=O)(=O)O)ccc23)cc1 ... inactive
O=C(NO)C1(NS(=O)(=O)c2ccc(Oc3ccc(F)cc3)cc2)CCOCC1 ... inactive
CC(C)CCCCCCOC(=O)C1CCCCC1C(=O)OCCCCCCC(C)C (stereo not given) ... inactive
S=P(N1CC1)(N1CC1)N1CC1 ... active

Q: Field: outcome | Entry: `Cn1c(=O)c2[nH]cnc2n(C)c1=O`
A: inactive

Q: Field: outcome | Entry: `OCC(CO)(CO)CO`
A: inactive

Q: Field: outcome | Entry: `OCCNCCO`
A: inactive

Q: Field: outcome | Entry: `CCN(CC)C(=S)SSC(=S)N(CC)CC`
A: active

Q: Field: outcome | Entry: `Cc1ncc([C@@H](CCCCCCc2ccc3c(n2)NCCC3)CC(=O)O)cn1`
A: inactive

Q: Field: outcome | Entry: `NC(=O)NN=Cc1ccc([N+](=O)[O-])o1`
A: active

Q: Field: outcome | Entry: `CCCCCCCCCC`
A: inactive

---

Read-out: Interleukin 6 (IL6), IL6 (gene 3569)
ASSAY_METHOD_TEXT: LTEA_HepaRG_IL6: Life Technologies and Expression Analysis (LTEA) Assay for Interleukin 6 (IL6) using HepaRG (AID 2283509)
APPLIED_CONDITIONS: mRNA level, 48 h; actives raise or lower the signal
Active and inactive are the calls of the source. The calls were made as follows: active = hit-call score of the fitted dose curve at least 0.9, where 1 is the maximum; inactive = score below 0.9.
Returns: one label drawn from YES (active), NO (inactive)

Q: Field: outcome | Entry: `CCCCCCCC/C=C\CCCCCCCC(=O)OC[C@@H](O)[C@H]1OC[C@H](O)[C@H]1O`
A: NO

Q: Field: outcome | Entry: `CNC(C)=O`
A: NO

Q: Field: outcome | Entry: `CC1(C)C(=O)N(Cl)C(=O)N1Cl`
A: NO

Q: Field: outcome | Entry: `O=C(O)c1cccc(C(=O)O)c1`
A: NO

Q: Field: outcome | Entry: `CCCCCCCCCCCCCCCCOS(=O)(=O)O`
A: NO

Q: Field: outcome | Entry: `c1ccc2cc3ccccc3cc2c1`
A: NO
